experiment: Binding affinity to human recombinant von Willebrand factor A1 domain using surface plasmon resonance imaging sensor
PROPERTY NAME: Kd (µM)

a: CO[C@H]1[C@H](O)[C@@H](NS(=O)(=O)O)[C@@H](O[C@H]2[C@H](O)[C@@H](O)[C@H](OC[C@@H](O)[C@@H](O)[C@H](O)[C@@H](O)CNc3cccc(NC(=O)CCCCC4CCSS4)c3)O[C@@H]2C(=O)O)O[C@@H]1CO (some centres undefined)
b: CO[C@H]1[C@H](O)[C@@H](NS(=O)(=O)O)[C@@H](O[C@H]2[C@H](O)[C@@H](OS(=O)(=O)O)[C@H](OC[C@@H](O)[C@@H](O)[C@H](O)[C@@H](O)CNc3cccc(NC(=O)CCCCC4CCSS4)c3)O[C@H]2C(=O)O)O[C@@H]1CO (some centres undefined)
Quick check, higher Kd between a and b ? Response format: the label of the selected entry. a
(a: 4.3 µM, b: 0.9 µM)
